Values were extracted from the supplement of paper PMC10065799.

molecular target: EPHB2 (UniProt P29323); experiment: phosphorylation enrichment, bacterial display (enrichment ratio); higher = better substrate or ligand; peptides without Tyr show the background
Sequence (P29323 whole entry, looked up): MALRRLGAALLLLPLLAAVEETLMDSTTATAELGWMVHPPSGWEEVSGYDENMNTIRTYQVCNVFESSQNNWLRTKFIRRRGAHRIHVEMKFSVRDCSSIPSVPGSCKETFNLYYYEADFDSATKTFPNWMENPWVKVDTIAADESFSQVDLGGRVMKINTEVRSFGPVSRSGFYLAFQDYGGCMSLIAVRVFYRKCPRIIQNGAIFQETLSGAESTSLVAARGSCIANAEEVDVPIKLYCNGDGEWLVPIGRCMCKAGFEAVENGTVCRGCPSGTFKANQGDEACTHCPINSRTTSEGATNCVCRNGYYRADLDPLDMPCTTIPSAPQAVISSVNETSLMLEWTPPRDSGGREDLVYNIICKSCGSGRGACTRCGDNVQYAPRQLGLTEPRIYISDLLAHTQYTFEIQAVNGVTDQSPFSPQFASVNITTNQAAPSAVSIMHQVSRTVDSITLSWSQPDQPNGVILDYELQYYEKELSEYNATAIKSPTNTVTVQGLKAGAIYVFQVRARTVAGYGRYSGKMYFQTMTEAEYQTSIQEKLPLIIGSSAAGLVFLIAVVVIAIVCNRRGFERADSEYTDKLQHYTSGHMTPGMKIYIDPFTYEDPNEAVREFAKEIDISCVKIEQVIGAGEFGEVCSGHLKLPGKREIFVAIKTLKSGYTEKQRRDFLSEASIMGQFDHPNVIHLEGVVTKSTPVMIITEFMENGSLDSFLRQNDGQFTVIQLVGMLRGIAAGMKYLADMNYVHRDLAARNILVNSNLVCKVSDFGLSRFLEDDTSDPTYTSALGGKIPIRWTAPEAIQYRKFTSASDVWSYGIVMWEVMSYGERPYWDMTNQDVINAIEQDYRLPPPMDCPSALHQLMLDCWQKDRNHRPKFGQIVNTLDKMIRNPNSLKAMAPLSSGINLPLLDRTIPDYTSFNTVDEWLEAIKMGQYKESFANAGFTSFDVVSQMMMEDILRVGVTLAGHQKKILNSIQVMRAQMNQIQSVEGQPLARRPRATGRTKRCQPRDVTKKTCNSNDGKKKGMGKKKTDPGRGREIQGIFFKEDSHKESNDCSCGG
ASSAY_READOUT: phosphorylation enrichment
One number for each entry.

1. DCVRMYELVHR [GLE1_Y135_G130D]
3.53

For every listed record, write down its phosphorylation enrichment.
1. SHLSAYPALEG [CD5_Y465]
2. PMWHPYKVDVT [TP53TG5_Y255]
3. FISLIYTNFEA [GSTP1_Y109_YF]

0.398
0.54
0.793

For every listed record, write down its phosphorylation enrichment.
1. AKIDGYITSYR
2. FASTGYVIAIQ [GRIN2B_Y762_G763V]

1: 0.51; 2: 0.587

Looking up LKLIQYHLIQQ [AKAP4_Y554_T557I] , I see its phosphorylation enrichment listed as 0.737

###

Kindly state SH2 binding enrichment for each of the entries shown.
biological target: SHP2-C SH2; experiment: SH2 binding enrichment of the phosphorylated peptide, bacterial display (enrichment ratio); higher = better substrate or ligand; peptides without Tyr show the background;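 also: peptide library displayed on the E. coli surface as eCPX fusions, selected cells deep-sequenced, score is each peptide's frequency after selection divided by its frequency in the input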
Answers are plain numbers.

Previously resolved entries follow.
1. GGFNNYGFGND [HNRNPH3_Y159_YF]
0.697
2. RNAAEYLLSSG [ABL1_Y139]
0.595

For every listed record, write down its SH2 binding enrichment.
1. RETLTYAQAQR [BRD1_Y33]
2. GKGGSYSKAES [HLA-E_Y341_W346S]
3. DVSVVCSEVKT [FCRL4_Y493_Y493C]

[0.819, 0.499, 0.581]

###

test system: Fer (mouse); experiment: phosphorylation enrichment, bacterial display (enrichment ratio); higher = better substrate or ligand; peptides without Tyr show the background
// label = 1.0 if phosphorylation enrichment is not less than 0.5, otherwise 0.0

1) LEIETDRRLLD [KRT12_Y429_Y429D]
1.0

Please tell me: is the sequence ATDLAYYLVRE [ASL_Y375_K380E] at or over 0.5 in terms of phosphorylation enrichment?
0.0

Please tell me: is the sequence PRPAGYPSMVS [CACNA1C_Y1832_T1835M] at or over 0.5 in terms of phosphorylation enrichment?
0.0

Please tell me: is the sequence RVGNMYVRGLS [ABCG8_Y209] at or over 0.5 in terms of phosphorylation enrichment?
0.0

Please tell me: is the sequence TEAGDYKLCFD [TMED1_Y103] at or over 0.5 in terms of phosphorylation enrichment?
1.0

Please tell me: is the sequence FQKDVYNIPPS [NEDD9_Y177_D178N_YF] at or over 0.5 in terms of phosphorylation enrichment?
0.0

Please tell me: is the sequence IVAEYYDNLPH [DEGS1_Y284_A280V] at or over 0.5 in terms of phosphorylation enrichment?
1.0

Please tell me: is the sequence FEGHSYSACTT [MMP9_Y241_R239H] at or over 0.5 in terms of phosphorylation enrichment?
1.0

Please tell me: is the sequence VTSLKYSTSPF [BRIP1_Y916_YF] at or over 0.5 in terms of phosphorylation enrichment?
0.0

Please tell me: is the sequence LPKEQYLYTKE [AFG3L2_Y614] at or over 0.5 in terms of phosphorylation enrichment?
1.0

Please tell me: is the sequence MPAVTYTPAMR [MEGF10_Y895] at or over 0.5 in terms of phosphorylation enrichment?
0.0

Please tell me: is the sequence SGVSFYINLCQ [IGF2R_Y2025_N2020S_YF] at or over 0.5 in terms of phosphorylation enrichment?
1.0
